The reported measurements were obtained from ChEMBL document CHEMBL1144257.

SYSTEM: UniProt P06737
Sequence (P06737 whole entry): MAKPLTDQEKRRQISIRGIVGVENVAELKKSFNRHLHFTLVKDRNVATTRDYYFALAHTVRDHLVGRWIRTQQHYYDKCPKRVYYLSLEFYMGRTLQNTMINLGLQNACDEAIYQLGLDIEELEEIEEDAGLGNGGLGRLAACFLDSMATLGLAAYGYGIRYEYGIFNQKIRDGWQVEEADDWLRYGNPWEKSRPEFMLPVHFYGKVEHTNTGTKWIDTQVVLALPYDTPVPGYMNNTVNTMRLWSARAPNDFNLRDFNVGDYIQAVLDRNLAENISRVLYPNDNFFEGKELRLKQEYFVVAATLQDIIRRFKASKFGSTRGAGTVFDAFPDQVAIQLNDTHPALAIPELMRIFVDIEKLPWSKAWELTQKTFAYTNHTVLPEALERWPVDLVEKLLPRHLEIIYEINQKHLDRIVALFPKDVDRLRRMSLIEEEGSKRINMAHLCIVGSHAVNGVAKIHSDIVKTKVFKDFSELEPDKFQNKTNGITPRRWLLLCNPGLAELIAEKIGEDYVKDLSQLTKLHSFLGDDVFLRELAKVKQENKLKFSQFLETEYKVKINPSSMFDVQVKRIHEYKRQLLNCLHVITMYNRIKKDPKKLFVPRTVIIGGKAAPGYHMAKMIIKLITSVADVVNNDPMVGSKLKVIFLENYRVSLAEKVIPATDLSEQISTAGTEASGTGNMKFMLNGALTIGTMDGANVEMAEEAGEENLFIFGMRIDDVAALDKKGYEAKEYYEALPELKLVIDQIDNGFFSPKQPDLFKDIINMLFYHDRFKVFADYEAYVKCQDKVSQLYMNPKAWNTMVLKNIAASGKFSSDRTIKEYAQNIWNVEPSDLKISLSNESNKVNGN
ASSAY_COMMENT: Inhibitory concentration against glycogen phosphorylase
pIC50: −log10 of the molar value.
VALUE_TYPE: pIC50

Please review the entries below; each comes with its answer.
O=C(NCC(=O)N(CCO)C1CCCCCCCC1)c1cc2cc(Cl)ccc2[nH]1 : 7.09
CN(Cc1ccccc1)C(=O)CNC(=O)c1cc2cc(Cl)ccc2[nH]1 : 6.26
O=C(NCC(=O)N(CCO)c1ccccc1)c1cc2cc(Cl)ccc2[nH]1 : 6.92

(A) CN(Cc1ccncc1)C(=O)CNC(=O)c1cc2cc(Cl)ccc2[nH]1
(B) O=C(NCC(=O)N(CCO)Cc1ccccc1)c1cc2cc(Cl)ccc2[nH]1
(C) O=C(NCC(=O)N(CCO)C1CCCCCCCCCCC1)c1cc2cc(Cl)ccc2[nH]1
(D) CN(C)CCN(C(=O)CNC(=O)c1cc2cc(Cl)ccc2[nH]1)C1CCCC1
(E) CN(CCO)C(=O)CNC(=O)c1cc2cc(Cl)ccc2[nH]1
Prompt: Number of molecules to sort: 5. Sort criterion: pIC50, ascending. Hello, could you send the labels back in the order asked? Thank you.
Completion: D, A, C, E, B
(D: 5.01, A: 5.80, C: 6.02, E: 6.24, B: 6.49)
